Biological target: ecdTDR (extracellular domain of TDR, residues 30–642), wild type (Arabidopsis thaliana, UniProt Q9FII5)
Sequence (Q9FII5 30-642): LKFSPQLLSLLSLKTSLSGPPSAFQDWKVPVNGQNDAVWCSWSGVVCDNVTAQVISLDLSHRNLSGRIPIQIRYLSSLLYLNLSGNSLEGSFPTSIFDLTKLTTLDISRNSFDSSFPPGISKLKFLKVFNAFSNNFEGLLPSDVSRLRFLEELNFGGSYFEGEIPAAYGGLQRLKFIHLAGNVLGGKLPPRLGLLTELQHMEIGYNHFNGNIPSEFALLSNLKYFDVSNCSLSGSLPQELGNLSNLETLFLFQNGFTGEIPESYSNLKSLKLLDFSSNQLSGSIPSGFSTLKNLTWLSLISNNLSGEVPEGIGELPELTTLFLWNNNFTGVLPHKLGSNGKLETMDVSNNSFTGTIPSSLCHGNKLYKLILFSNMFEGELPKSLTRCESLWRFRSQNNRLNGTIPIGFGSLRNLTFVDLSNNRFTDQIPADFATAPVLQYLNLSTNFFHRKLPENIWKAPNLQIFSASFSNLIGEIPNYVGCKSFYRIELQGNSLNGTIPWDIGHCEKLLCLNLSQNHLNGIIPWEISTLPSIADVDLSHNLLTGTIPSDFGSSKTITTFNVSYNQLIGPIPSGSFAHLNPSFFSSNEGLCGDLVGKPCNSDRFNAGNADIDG
Assay: ITC of synthetic TDIF/CLE peptides with wild-type ecdTDR
Settings: ITC, wild-type ecdTDR, 25°C, pH 5.5
Ends that are not written are not given here.
READOUT KIND: Binding to TDR in words (relative to wild type peptide)

TDIF-H1A/E2A/V3A/N8A/I10A/N12A: TDIF mutant peptide, both anchoring sites mutated (AAAPSGPAPASA; not fully specified (residues 4, 7)) | no binding
TDIF-H1A/E2A/V3A/N12A: TDIF mutant peptide (AAAPSGPNPISA; not fully specified (residues 4, 7)) | no binding

Source of measurements: paper PMC5383425
